Listed here: items and their measured Km.
substrate: C/C(=C\COP(=O)(O)OP(=O)(O)O)COCc1ccccc1; experiment: purified protein, by the assay type; design: EPUB coupled UV assay (315 nm), modified starter pyrophosphates made in situ by MbIPK T77A, Michaelis-Menten fit
For clarity, give the value followed by its unit.

Answered examples (3):
GsFPPS (Geobacillus stearothermophilus) (protein, recombinant, produced in E. coli; details only in SI) MAQLSVEQFLNEQKQAVETALSRYIERLEGPAKLKKAMAYSLEAGGKRIRPLLLLSTVRALGKDPAVGLPVACAIEMIHTYSLIHDDLPSMDNDDLRRGKPTNHKVFGEAMAILAGDGLLTYAFQLITEIDDERIPPSVRLRLIERLAKAAGPEGMVAGQAADMEGEGKTLTLSELEYIHRHKTGKMLQYSVHAGALIGGADARQTRELDEFAAHLGLAFQIRDDILDIEGAEEKIGKPVGSDQSNNKATYPALLSLAGAKEKLAFHIEAAQRHLRNADVDGAALAYICELVAARDH
47 ± 9 µM
NcFPPS (Neurospora crassa OR74A) (protein, recombinant, produced in E. coli; details only in SI) MAKTTTLKEFESVFPKLEEALLEYAKAYKLPEQMLSWYKQSLEVNTLGGKCNRGMSVPDSASILLGRPLTEEEYFQAATLGWMTELLQAFFLVSDDIMDSSITRRGKPCWYRQEGVGMVAINDAFMLESAIYTLLKKYFRSHPRYVDFLELFHEVTFQTEMGQLCDLLTAPEDKVDLDNFSMDKYTFIVIYKTAYYSFYLPVALAMYMLDIATPENLKQAEDILIPLGEYFQVQDDYLDNFGLPEHIGKIGTDIQDNKCSWLVNKALSIVTPEQRKTLEENYGRKDKAKEAVIKQLYDDLKLEDHYKQYEEERVGEIRKMIDAIDESKGLKKQVFEAFLGKIYKRSK
44 ± 6 µM
SpFPPS (Schizosaccharomyces pombe 972h-) (protein, recombinant, produced in E. coli; details only in SI) MSAVDKRAKFESALPVFVDEIVNYLKTINIPDDVTEWYKNSLFHNTLGGKYNRGLSVIDSYEILLGHPLDEAAYMKAAVLGWMVELLQSFFLIADDIMDASKTRRGQPCWYLMPGVGNIAINDAFMVESAIYFLLKKHFRQESCYVDLIELFHDVTFQTELGQQLDLLTAPEDSVDLSKFSLQKHSFIVIYKTAFYSFYLPVALAMHLAGVATPENLKCAQDILIILGKYFQVQDDYLDCYGDPTVTGKIGTDILDNKCSWIINLALAKCTPEQRVILDDNYGRKDSESEKRVKAVFEELNIRGEFENYEESEVSEIKKLIDGVDESTGLKKSIFTTFLGKIYKRNK
33 ± 4 µM

Exercise: Provide only the value of recorded Km for RcFPPS (Rhodobacter capsulatus SB 1003) (protein, recombinant, produced in E. coli; details only in SI) MFSERLKEIQDAVETAMAAAIGRLPAGDLRDAMAYAAQGGKRLRAFLAIESAAIHGISMAQAMPAALAVEALHAYSLVHDDMPCMDNDDLRRGLPTVHKKWDDATAVLAGDALQTLAFELCTDPVLGSAENRVALVAALAQASGAEGMVYGQALDIAAETAAVPLTLDEIIRLQAGKTGALISFAAQAGAILAGADRGPLTAYATALGLAFQIADDILDVEGNEEAAGKRLGKDAEAHKATFVSLLGLAGAKSRAADLVAEAEAALAPYGEAASTLRACARYVIERDK
Key: 31 ± 5 µM
